- System: U2OS
- method-summary: Multiplex assay against U2OS
- Type: toxicity, cell-based
- condition-parameters: human, 24 h, 1 µM, compound concentration 1 uM, replicate 1
Each item that follows carries a reported Population Pyknosed Nuclei (%).
Report only the number, with the unit % understood.

O=c1nc2[nH]c3ccccc3nc-2c(=O)[nH]1; 8
Cl.Cl.OCCOCCN1CCN(C(c2ccccc2)c2ccc(Cl)cc2)CC1 (centres undefined) [HYDROXYZINE HYDROCHLORIDE]; 10
CC(C)(O)C(=O)N1CCN(c2ccc(C(F)(F)F)c(C3=C(c4c[nH]c5ccccc45)C(=O)NC3=O)c2)CC1; 11

Now consider the entry below.
Item Cn1cc(C(=O)OCC2CCN(CCNS(C)(=O)=O)CC2)c2ccccc21 ; assay system U2OS; Population Pyknosed Nuclei (%) reported as 8

* * *

Each item that follows carries a reported Total Cell Count.
- Tested on: U2OS
- method-summary: Multiplex assay against U2OS
- Assay type: toxicity, cell-based
- condition-parameters: human, 24 h, 10 µM, compound concentration 10 uM, replicate 2
Number only, please.

Data point: CN1CCN2c3ccccc3Cc3ccccc3C2C1.Cl (stereo not drawn) [MIANSERIN HYDROCHLORIDE] ; Total Cell Count = 183

Data point: O=C(NCCNCC(O)COc1ccc(O)cc1)N1CCOCC1.O=C(NCCNCC(O)COc1ccc(O)cc1)N1CCOCC1.O=C(O)/C=C/C(=O)O (stereo not drawn) [XAMOTEROL FUMARATE] ; Total Cell Count = 152

Data point: CC(C)(O)C(=O)N1CCN(c2ccc(C(F)(F)F)c(C3=C(c4c[nH]c5ccccc45)C(=O)NC3=O)c2)CC1 ; Total Cell Count = 152

Data point: Cc1cc(NC(=O)NCCN2CCC(O)(Cc3ccccc3)CC2)c2ccccc2n1 ; Total Cell Count = 129

Data point: O=C(Nc1cc(-c2ccccc2)nn1-c1ccccc1F)c1ccc([N+](=O)[O-])cc1 ; Total Cell Count = 164

Data point: COCCCN1CCC(NC(=O)c2cc(Cl)c(N)c3c2OCC3)CC1 [PRUCALOPRIDE] ; Total Cell Count = 161

Data point: CC(C)(C)c1ccc(CSc2cnn(C(C)(C)C)c(=O)c2Cl)cc1 ; Total Cell Count = 167

Data point: Cc1nn(C)c2nc(NNC(=O)Nc3cc(Cl)nc(Cl)c3)cc(C(C)C)c12 ; Total Cell Count = 110

Data point: CCC(=O)OCC(=O)[C@@]1(OC(=O)CC)[C@@H](C)C[C@H]2[C@@H]3CCC4=CC(=O)C=C[C@]4(C)[C@@]3(Cl)[C@@H](O)C[C@@]21C [BECLOMETHASONE DIPROPIONATE] ; Total Cell Count = 106

Data point: CCCCC[C@H](O)/C=C/[C@H]1[C@H](O)CC(=O)[C@@H]1CCCCCCC(=O)O ; Total Cell Count = 131

Data point: Cc1cc(O)c(-c2ccc([C@@H](C)CN(C)C)cc2)c2c1[nH]c(=O)c1sccc12 ; Total Cell Count = 118

Data point: C[C@H](NC(=O)CNC(=O)c1cccc(Cl)c1)c1ccccc1 ; Total Cell Count = 189

* * *

- System: Fibroblast
- method-summary: Multiplex assay against human fibroblast
- Type: toxicity, cell-based
- condition-parameters: 12 h, 10 µM, compound concentration 10 uM, replicate 2
Label Condition not met if Population Mitochondria Different-Phenotype (%) falls below 8%; label Condition met in every other case.

Field: example entries. Status: answers known.
CN1CCN2c3ccccc3Cc3ccccc3C2C1.Cl (stereo not given) [MIANSERIN HYDROCHLORIDE]; Condition not met
Cn1cc(C(=O)OCC2CCN(CCNS(C)(=O)=O)CC2)c2ccccc21; Condition not met
CCc1nn2c(C)cc(C)nc2c1Cc1ccc(-c2nnc(C3CCNCC3)o2)cc1; Condition met
CN1CCC(C(=O)c2cccc(NC(=O)c3c(F)cc(F)cc3F)n2)CC1; Condition not met
Cc1cc(NC(=O)NCCN2CCC(O)(Cc3ccccc3)CC2)c2ccccc2n1 [PALOSURAN]; Condition not met

## Task Confirm if Population Mitochondria Different-Phenotype (%) reported for the molecule COCCCN1CCC(NC(=O)c2cc(Cl)c(N)c3c2OCC3)CC1 [PRUCALOPRIDE] is 8% or above.
## Result Condition not met

## Task Confirm if Population Mitochondria Different-Phenotype (%) reported for the molecule COC(c1ccccc1)(c1ccccc1)[C@H](Oc1nc(C)cc(C)n1)C(=O)O [AMBRISENTAN] is 8% or above.
## Result Condition not met

## Task Confirm if Population Mitochondria Different-Phenotype (%) reported for the molecule CCCCC[C@H](O)/C=C/[C@H]1[C@H](O)CC(=O)[C@@H]1CCCCCCC(=O)O [ALPROSTADIL] is 8% or above.
## Result Condition not met

## Task Confirm if Population Mitochondria Different-Phenotype (%) reported for the molecule COc1cc2nc(N3CCN(C(=O)c4ccco4)CC3)nc(N)c2cc1OC.Cl [PRAZOSIN HYDROCHLORIDE] is 8% or above.
## Result Condition not met

## Task Confirm if Population Mitochondria Different-Phenotype (%) reported for the molecule O=c1nc2[nH]c3ccccc3nc-2c(=O)[nH]1 [ALLOXAZINE] is 8% or above.
## Result Condition met

## Task Confirm if Population Mitochondria Different-Phenotype (%) reported for the molecule CC(C)(C)c1ccc(CSc2cnn(C(C)(C)C)c(=O)c2Cl)cc1 [PYRIDABEN] is 8% or above.
## Result Condition not met

## Task Confirm if Population Mitochondria Different-Phenotype (%) reported for the molecule Cc1sc2c(c1C)C(c1ccc(Cl)cc1)=N[C@H](CC(=O)OC(C)(C)C)c1nnc(C)n1-2 is 8% or above.
## Result Condition met

## Task Confirm if Population Mitochondria Different-Phenotype (%) reported for the molecule CN(C)C/C=C/C(=O)Nc1ccc(C(=O)N2CCCC(Nc3ncc(Cl)c(-c4c[nH]c5ccccc45)n3)C2)cc1 (stereo not given) is 8% or above.
## Result Condition met

## Task Confirm if Population Mitochondria Different-Phenotype (%) reported for the molecule N[C@](CC1c2ccccc2Oc2ccccc21)(C(=O)O)[C@H]1C[C@@H]1C(=O)O is 8% or above.
## Result Condition not met
